# assay notes: Plasma pharmacokinetics of DT2216 in patients, phase 1 dose escalation
# Type: in vivo, human
# test conditions: human, plasma, iv, 0.24 mg/kg, Cycle 1 Day 22, 0.24 mg/kg IV BIW, plasma, mean (CV%), N = 6; read-out: AUClast
result type: AUC(0-t) (ng·h/mL)
Report the figure in ng·h/mL without appending any unit label.

Q: // lookup AUC(0-t) for Cc1ncsc1-c1ccc([C@H](C)NC(=O)[C@@H]2C[C@@H](O)CN2C(=O)[C@@H](NC(=O)CCCCCC(=O)N2CCN(CC[C@H](CSc3ccccc3)Nc3ccc(S(=O)(=O)NC(=O)c4ccc(N5CCN(CC6=C(c7ccc(Cl)cc7)CCC(C)(C)C6)CC5)cc4)cc3S(=O)(=O)C(F)(F)F)CC2)C(C)(C)C)cc1
A: 26400
